Target: T1, SUMO*-GFP (engineered SUMO 2F4, Smt3 R64T R71E, fused to GFP)
T1 chain: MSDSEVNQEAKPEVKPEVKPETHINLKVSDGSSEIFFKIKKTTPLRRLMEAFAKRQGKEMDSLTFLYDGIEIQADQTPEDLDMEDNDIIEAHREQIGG
QUANTITY_KIND: % Cleavage of SUMO* tag (%)
Numbers only, in %.

Problem: In one line, give reported % Cleavage of SUMO* tag of the entry ULP1 mutant 1.48 (residues 451-455: S T I I M) (protein) LVPELNEKDDDQVQKALASRENTQLMNRDNIEITVRDFKTLAPRRWLNSTIIMFFMKYIEKSTPNTVAFNSFFYTNLSERGYQGVRRWMKRKKTQIDKLDKIFTPINLNQSHWALGIIDLKKKTIGYVDSLSNGPNAMSFAILTDLQKYVMEESKHTIGEDFDLIHLDCPQQPNGYDCGIYVCMNTLYGSADAPLDFDYKDAIRMRRFIAHLILTDALK .
Result: 75
